Source listed as patent US20200347135A1.

target: human PD-1 expressed on cells (UniProt Q15116 25-288); assay: FACS ligand competition (PD-L1 Fc)
Sequence (Q15116 25-288): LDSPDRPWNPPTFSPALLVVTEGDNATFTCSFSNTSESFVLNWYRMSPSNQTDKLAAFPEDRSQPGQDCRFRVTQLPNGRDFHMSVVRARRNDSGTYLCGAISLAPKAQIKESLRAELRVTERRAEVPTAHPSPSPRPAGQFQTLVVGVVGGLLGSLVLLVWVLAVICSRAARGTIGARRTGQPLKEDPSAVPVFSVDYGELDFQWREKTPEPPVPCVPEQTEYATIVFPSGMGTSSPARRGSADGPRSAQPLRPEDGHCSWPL
quantity name: IC50
Please make sure the unit comes right after the number.

AS25149_HCAb (antibody, V domains shown) VH: QVQLVESGGGSVQSGGSLKLSCAVSGSGYSYSRGCFAWFQQRPGKEREGVAIINSDGHTRYSDSVQGRFIISQDKAKNTLYLQMNSLKPDDAAMYYCAYDRNQCYVLLDRLRLPGTFSDWGQGTQVTVSS: 8 nM
AS25037_HCAb (antibody, V domains shown) VH: EVQLAESGGGSVQAGGSLKLSCLASQWISSDCGMAWYRQAPGKERELVSRISSDDTTTYADSVKGRFTISQDSAKNTLYLQMNKLKTEDTGVYYCAAEAKSTITSLCYPLNYWGQGTQVTVSS: 6.58 nM
AS24984_HCAb (antibody, V domains shown) VH: QVHLMESGGGSVPSGGSLRLSCAVSGSGYSYSRGCFAWFQQRPGKEREGVAIINMDGHTRYSDSVQGRFIISQDKAKNTLHLQMNTLRPDDTAMYYCAYDRSQCYVLSDRLRLPGTFSDWGQGTQVTVSS: 4.59 nM
AS25457_HCAb (antibody, V domains shown) VH: QVQLVESGGGSVQAGGSLRLSCAVSGISISPDCMGWFRQAPGKKREAVATIFTNTRSTRYGDSVKGRFTSSQGNAKNTLYLQMDSLKLDDTATYYCAARYTGGDCFNLEPVAWRFWGQGTQVTVSS: 2.44 nM
AS25117_HCAb (antibody, V domains shown) VH: EVQLAESGGGSVQAGGSLRLSCVISGTSISPDCMGWFRQAPGKKREAVMSIFTNTGSTRYGDSVKGRFTSSQGNAKNTLYLQMDSLKLDDTATYYCAARYTGGDCFNLEPLAWRFWGQGTQVTVSS: 2.06 nM
AS25156_HCAb (antibody, V domains shown) VH: EVQLVESGGGSVQSGGSLRLSCAVSGSGYSYSRGCFAWFQQRPGKEREGVAIINSDGHTRYSDSVQGRFIISQDKAKNTLYLQMNSLKPDDTAMYYCAYDCSQCYVLRDRLRLPDTFTDWGQGTQVTVSS: 6.04 nM

Here's the next entry for you.
Which IC50 value belongs to AS25115_HCAb (antibody, V domains shown) VH: QVHLVESGGASVQAGGSLRLSCAATAYTASNYCMGWFRQSPGKEREAVASINDDGVTSYADSVKGRFTISQDSAKKTLYLQMNRLKPEDTAMYYCAATPDGYCYAERLSRWRYEFWGQGTQVTVSS ?
2.15 nM
